System: HCT-116
Assay remarks: in vitro cytotoxicity, tumor cell line HCT-116
Type: cell-based
Conditions: Homo sapiens; HCT-116 cell line; read-out: Cytotoxicity IC50
Recorded metric: IC50 (nM)
Use nM as the unit, but write only the number.

Form field: reported IC50 of O=c1c2c(O)cccc2oc2ccc3c(c12)CC(C1(CO)CO1)O3 (stereo not shown)
1000

Source of measurements: patent US8263644B2
